# TARGET_OF_ASSAY: BCL6 (Homo sapiens)
# Construct: endogenous in cells; host or cells: T47D breast cancer epithelial cells
# PROCEDURE_TEXT: Immunofluorescence protocol for high content imaging of BCL6 (degradation) in T47D cells, 3 days compound treatment
# Type: cell-based
# CONDITION_LABEL: T47D, read-out: Mean Dmax (%)** category
Here the recorded Dmax is given for each entry.

Here's what some known entries look like.
CNC(=O)COc1cc2cc(Nc3nc(N4CCC(CN5CCC6(CC5)CCN6c5ccc6c(c5)C(=O)N(C5CCC(=O)NC5=O)C6=O)CC4)ncc3Cl)ccc2n(C(C)C)c1=O (stereo not shown); ≥ 70%
CNC(=O)COc1cc2cc(Nc3nc(N4CCC(O[C@H]5C[C@H](N6CCC(F)(c7ccc8c(c7F)CN(C7CCC(=O)NC7=O)C8=O)CC6)C5)CC4)ncc3Cl)ccc2n(C(C)C)c1=O (stereo partly shown); ≥ 70%
CNC(=O)COc1cc2cc(Nc3nc(N4CCC(O[C@H]5C[C@H](N6CCCC7(CCN(c8ccc9c(c8)CN(C8CCC(=O)NC8=O)C9=O)C7)C6)C5)CC4)ncc3Cl)ccc2n(C(C)C)c1=O (stereo partly shown); ≥ 70%
CNC(=O)COc1cc2cc(Nc3nc(N4CCN(CC5CCC6(CC5)CN(c5c(F)ccc7c5CN(C5CCC(=O)NC5=O)C7=O)C6)CC4)ncc3Cl)ccc2n(C(C)C)c1=O (stereo not shown); 50 to 70%
CNC(=O)COc1cc2cc(Nc3nc(N4CCC(O[C@H]5C[C@H](N6C[C@@H](C)N(c7ccc8c(c7)C(=O)N(C7CCC(=O)NC7=O)C8=O)[C@H](C)C6)C5)CC4)ncc3Cl)ccc2n(C(C)C)c1=O (stereo partly shown); ≥ 70%

Input line: Request the reported Dmax associated with CNC(=O)COc1cc2cc(Nc3nc(N4CCC(N5CCC6(CN(CC7CCN(c8ccc9c(c8)C(=O)N(C8CCC(=O)NC8=O)C9=O)CC7)C6)C5)CC4)ncc3Cl)ccc2n(C(C)C)c1=O (stereo not shown)
Output line: 50 to 70%

Input line: Request the reported Dmax associated with CNC(=O)COc1cc2cc(Nc3nc(N4CCC(O[C@H]5C[C@H](N6CCC7(CC6)CN(c6ccc8c(c6C)C(=O)N(C6CCC(=O)NC6=O)C8=O)C7)C5)CC4)ncc3Cl)ccc2n(C(C)C)c1=O (stereo partly shown)
Output line: ≥ 70%

Input line: Request the reported Dmax associated with CNC(=O)COc1cc2cc(Nc3nc(N4CCC(N5CCC56CN(C5CCCN(c7ccc8c(c7)CN(C7CCC(=O)NC7=O)C8=O)C5)C6)CC4)ncc3Cl)ccc2n(C(C)C)c1=O (stereo not shown)
Output line: 50 to 70%

Input line: Request the reported Dmax associated with CNC(=O)COc1cc2cc(Nc3nc(N4CCC(O[C@H]5C[C@H](N6CCN(c7ccc8c(c7)C(=O)N(C7CCC(=O)NC7=O)C8=O)C[C@H]6C)C5)CC4)ncc3Cl)ccc2n(C(C)C)c1=O (stereo partly shown)
Output line: 50 to 70%

Input line: Request the reported Dmax associated with CNC(=O)COc1cc2cc(Nc3cc(N4CCC(CN5CCC6(CC5)CN(c5ccc7c(c5)CN(C5CCC(=O)NC5=O)C7=O)C6)CC4)ncc3Cl)ccc2n(C(C)C)c1=O (stereo not shown)
Output line: 50 to 70%

###

Here the recorded Dmax is given for each entry.
# TARGET_OF_ASSAY: BCL6 (Homo sapiens)
# Construct: endogenous in cells; host or cells: T47D breast cancer epithelial cells
# PROCEDURE_TEXT: Immunofluorescence protocol for high content imaging of BCL6 (degradation) in T47D cells, 3 days compound treatment
# Format: cell-based
# CONDITION_LABEL: T47D cells, 3 days compound treatment, read-out: Mean Dmax (%)** category

CNC(=O)COc1cc2cc(Nc3nc(N4CCN(CC5CCN(c6ccc(OC)c7c6CN(C6CCC(=O)NC6=O)C7=O)CC5)CC4)ncc3Cl)ccc2n(C(C)C)c1=O (centres unmarked); 50 to 70%
CNC(=O)COc1cc2cc(Nc3nc(N4CCC(O[C@H]5C[C@H](N6CCC(c7cc(F)c8c(c7F)CN([C@H]7CCC(=O)NC7=O)C8=O)CC6)C5)CC4)ncc3Cl)ccc2n(C(C)C)c1=O; ≥ 70%
CNC(=O)COc1cc2cc(Nc3nc(N4CCC(F)(CN5CC6(CCN(c7cc8c(cc7F)C(=O)N(C7CCC(=O)NC7=O)C8)CC6)C5)CC4)ncc3Cl)ccc2n(C(C)C)c1=O (centres unmarked); 50 to 70%
CNC(=O)COc1cc2cc(Nc3nc(N4CCN(CC5CCN(c6cc7c(cc6F)C(=O)N(C6CCC(=O)NC6=O)C7)CC5)CC4)ncc3Cl)ccc2n(C(C)C)c1=O (centres unmarked); 50 to 70%

Now turn to the next compound.
Input line: Under BCL6 (Homo sapiens): Dmax value of CNC(=O)COc1cc2cc(Nc3nc(N4CCC(CN5CCC6(CN(c7ccc8c(c7)C(=O)N(C7CCC(=O)NC7=O)C8=O)C6)C(F)C5)CC4)ncc3Cl)ccc2n(C(C)C)c1=O (centres unmarked) ?
Output line: < 50%
